Target: HLA-A*02:04
Assay: IEDB peptide-MHC binding, cellular MHC/competitive/fluorescence; bounds were set here for any values at or beyond the usual limits of such assays
Settings: source organism: Human papillomavirus 16
endpoint: IC50 (µM)

>>> experimental_value("YMLDLQPETT")
11
>>> experimental_value("TLGIVCPI")
4

###

Reported pIC50 values for a set of sequences
Target: HLA-A*02:03
Assay: IEDB peptide-MHC binding, cellular MHC/competitive/fluorescence; bounds were set here for any values at or beyond the usual limits of such assays
Settings: source organism: Human papillomavirus 16
pIC50: −log10 of the molar value.
endpoint: pIC50

>>> experimental_value("TLGIVCPI")
5.70
>>> experimental_value("YMLDLQPETT")
5.30
